Assign switch fluorescence ratio to each entry below.
System: ATP;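 further: ATP exposure 15 min at 22 °C before imaging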
experimentDescription: switch fluorescence ratio, 500 uM ATP over buffer (Cy3 cluster intensity, sum of 5 cycles each) (fold (ratio)); higher = stronger signal-on switching upon ATP binding; sequences stand for … in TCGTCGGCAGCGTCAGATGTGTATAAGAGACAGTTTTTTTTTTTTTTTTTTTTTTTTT…TC
particulars: aptamer strand: ATP DNA aptamer (quencher-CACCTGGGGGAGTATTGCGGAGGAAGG + anchor), 100 nM annealed; ATP concentration: 500 uM

Sample records with switch fluorescence ratio:
residuestring=TCAAAGCAAA measurementtype="switch fluorescence ratio" measuredresult=1.41
residuestring=TCGATGGGTG measurementtype="switch fluorescence ratio" measuredresult=1.01
residuestring=CGTGACCGGG measurementtype="switch fluorescence ratio" measuredresult=0.996

Each sequence below has a reported value. Please supply its switch fluorescence ratio.
1. TTGATCTCAT
2. TATGTTGTAC
3. CTCTATTGAT
4. TTTTATATGG
5. GGGCGGGGTA
6. GTTGGGTGGA
7. GGGGGGCTTA

[0.948, 1.05, 0.997, 0.986, 1.01, 1.04, 0.999]

Where these numbers come from: the supplement of paper PMC10126150
